Each entry below lists one item and its recorded log10 of IC50 value.
Biological target: Nav1.7 (or SCN9A) channel; HEK cells stably transfected with hSCN9A (Homo sapiens, UniProt Q15858)
Construct: expressed in transfected cells
Sequence (Q15858 whole entry): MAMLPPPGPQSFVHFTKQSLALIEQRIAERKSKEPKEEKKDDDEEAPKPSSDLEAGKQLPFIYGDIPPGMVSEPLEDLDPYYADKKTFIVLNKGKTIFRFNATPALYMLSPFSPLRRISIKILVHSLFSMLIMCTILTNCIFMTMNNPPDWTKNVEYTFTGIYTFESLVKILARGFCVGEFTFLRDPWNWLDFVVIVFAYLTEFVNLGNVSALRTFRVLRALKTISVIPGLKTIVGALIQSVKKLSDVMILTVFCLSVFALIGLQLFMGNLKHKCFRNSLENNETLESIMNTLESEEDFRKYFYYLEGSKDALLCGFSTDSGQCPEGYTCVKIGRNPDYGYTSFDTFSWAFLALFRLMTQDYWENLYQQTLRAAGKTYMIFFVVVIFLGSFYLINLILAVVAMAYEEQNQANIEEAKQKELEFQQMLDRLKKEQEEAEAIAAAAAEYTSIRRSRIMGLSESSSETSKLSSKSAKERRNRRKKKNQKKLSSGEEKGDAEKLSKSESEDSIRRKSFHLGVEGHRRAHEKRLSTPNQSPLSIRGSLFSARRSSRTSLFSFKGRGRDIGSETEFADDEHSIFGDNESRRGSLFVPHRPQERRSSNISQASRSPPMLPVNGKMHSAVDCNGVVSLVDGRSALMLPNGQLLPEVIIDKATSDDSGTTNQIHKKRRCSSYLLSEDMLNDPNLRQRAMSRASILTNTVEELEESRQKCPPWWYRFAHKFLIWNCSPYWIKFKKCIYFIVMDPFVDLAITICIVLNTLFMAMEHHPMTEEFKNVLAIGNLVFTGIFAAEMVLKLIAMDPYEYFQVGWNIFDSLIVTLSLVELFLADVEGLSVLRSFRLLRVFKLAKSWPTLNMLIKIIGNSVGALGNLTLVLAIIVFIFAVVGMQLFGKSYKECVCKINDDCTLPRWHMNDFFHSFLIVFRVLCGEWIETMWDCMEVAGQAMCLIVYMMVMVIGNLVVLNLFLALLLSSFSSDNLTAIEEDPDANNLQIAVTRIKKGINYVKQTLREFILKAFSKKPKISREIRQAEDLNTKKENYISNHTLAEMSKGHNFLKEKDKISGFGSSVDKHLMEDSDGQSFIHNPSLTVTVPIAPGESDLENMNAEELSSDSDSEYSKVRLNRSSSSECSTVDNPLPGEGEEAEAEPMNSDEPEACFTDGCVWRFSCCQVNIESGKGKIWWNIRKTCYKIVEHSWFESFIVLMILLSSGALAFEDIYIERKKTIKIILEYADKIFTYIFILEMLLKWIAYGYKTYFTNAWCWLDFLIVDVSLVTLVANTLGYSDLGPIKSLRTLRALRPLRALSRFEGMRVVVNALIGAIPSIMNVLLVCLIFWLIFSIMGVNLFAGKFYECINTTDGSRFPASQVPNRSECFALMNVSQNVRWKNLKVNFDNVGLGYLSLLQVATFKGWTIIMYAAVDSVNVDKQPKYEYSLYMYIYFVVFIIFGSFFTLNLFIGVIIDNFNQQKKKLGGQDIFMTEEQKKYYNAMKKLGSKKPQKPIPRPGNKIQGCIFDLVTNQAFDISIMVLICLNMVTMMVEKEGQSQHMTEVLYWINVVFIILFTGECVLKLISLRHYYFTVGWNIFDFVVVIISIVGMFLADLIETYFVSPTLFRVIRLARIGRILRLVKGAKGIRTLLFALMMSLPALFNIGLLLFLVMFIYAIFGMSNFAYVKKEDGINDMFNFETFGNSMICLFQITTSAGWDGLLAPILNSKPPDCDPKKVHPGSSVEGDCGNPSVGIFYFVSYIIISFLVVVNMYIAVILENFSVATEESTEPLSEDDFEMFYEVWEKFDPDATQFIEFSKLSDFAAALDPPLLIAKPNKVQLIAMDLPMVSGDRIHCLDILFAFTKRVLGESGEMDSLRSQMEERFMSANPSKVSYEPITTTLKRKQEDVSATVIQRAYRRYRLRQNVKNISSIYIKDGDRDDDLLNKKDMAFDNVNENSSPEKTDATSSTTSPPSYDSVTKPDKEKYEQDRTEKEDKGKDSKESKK
Experiment: Nav1.7 block, PatchXpress 7000 automated whole-cell voltage clamp, estimated IC50 (EIC50)
Assay type: cell-based
Settings: estimated IC50; hSCN9A HEK cells, PatchXpress platform; Examples 283-814
// do not treat as linear: log10 of IC50, unit nM

Some molecules with known log10 of IC50 results, for comparison:
1) N#Cc1cc(S(=O)(=O)Nc2nccs2)ccc1Oc1ccc(OC(F)(F)F)cc1-c1cn[nH]c1 = 1.04
2) N#Cc1cc(S(=O)(=O)Nc2nccs2)ccc1Oc1ccc(Cl)cc1C1CNC1 = 2.04

# return recorded log10 of IC50 for entry `Cn1nccc1-c1cc(F)ccc1Oc1cc(F)c(S(=O)(=O)Nc2ncns2)cc1Cl`
1.88

Please list log10 of IC50 recorded for the molecule `Cn1nccc1-c1cc(Br)ccc1Oc1ccc(S(=O)(=O)Nc2ncns2)cc1C(N)=O`
3.00

Consider the molecule `Cn1nc(C(F)(F)F)cc1-c1ccc(Oc2cc(F)c(S(=O)(=O)Nc3cscn3)cc2Cl)c(C#N)c1` and give its recorded log10 of IC50.
2.76

Quick one: give measured log10 of IC50 for `Cn1nccc1-c1cc(Cl)ccc1Oc1ccc(S(=O)(=O)Nc2ncc(F)cn2)cc1C#N`
3.00

Query log10 of IC50 for `N#Cc1cc(S(=O)(=O)Nc2ncc(F)s2)ccc1Oc1ccc(Cl)c(Cn2ccnc2)c1`
2.36

The reported measurements were obtained from patent US8541588B2.
